Biological target: T1, human fibroblast activation protein (FAP) (human, UniProt Q12884 26-760)
T1 construct: also called human FAP; hFAP
T1 sequence: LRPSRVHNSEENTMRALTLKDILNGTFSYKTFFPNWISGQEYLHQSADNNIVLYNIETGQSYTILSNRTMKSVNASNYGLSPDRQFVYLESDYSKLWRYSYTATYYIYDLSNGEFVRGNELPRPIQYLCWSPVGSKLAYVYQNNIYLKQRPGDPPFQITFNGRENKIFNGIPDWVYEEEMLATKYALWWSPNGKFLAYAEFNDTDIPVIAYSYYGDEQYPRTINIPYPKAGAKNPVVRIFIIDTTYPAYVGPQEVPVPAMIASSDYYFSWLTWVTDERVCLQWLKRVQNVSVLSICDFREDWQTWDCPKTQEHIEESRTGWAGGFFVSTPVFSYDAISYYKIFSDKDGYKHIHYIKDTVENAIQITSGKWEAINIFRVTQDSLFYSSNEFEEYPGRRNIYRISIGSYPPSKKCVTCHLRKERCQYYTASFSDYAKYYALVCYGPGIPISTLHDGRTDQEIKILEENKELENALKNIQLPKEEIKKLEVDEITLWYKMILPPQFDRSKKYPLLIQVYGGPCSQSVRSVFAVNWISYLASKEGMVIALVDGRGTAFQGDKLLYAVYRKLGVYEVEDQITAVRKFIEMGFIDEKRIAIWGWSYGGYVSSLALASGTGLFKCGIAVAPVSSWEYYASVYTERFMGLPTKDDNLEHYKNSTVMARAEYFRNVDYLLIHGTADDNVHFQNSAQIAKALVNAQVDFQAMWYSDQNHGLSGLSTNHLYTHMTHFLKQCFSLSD
Experiment: BLI (Octet), kinetics to human FAP, pre TCO conjugation
observedProperty: kon (M⁻¹ s⁻¹)

* VHH9 (VHH, Anti-FAP VHH, tested before TCO conjugation; also called unconjugated VHH9) VHH: QVQLQESGGGLVQSGGSLRLSCVASGSISSINAMGWYRQAPGNKREWVAGITSGGSTNYADAVLGRFSIFRDNPKNTVYLQMNSLKPEDTAVYYCNTWPPSTFGSWGQGTQVTVSS | 3.98e+06
* VHH7 (VHH, Anti-FAP VHH, tested before TCO conjugation; also called unconjugated VHH7) VHH: QVQLQESGGGLVQAGGSLRLSCTASGTFSGRNAMAWYRQAPGKRRELVAGIRSDDSTNYVDSVKGRFTISRDNAKNTVYLQMNSLRPEDTAVYYCNLWPPVIGAGFGSWGQGTQVTVSS | 2.4e+06
* VHH8 (VHH, Anti-FAP VHH, tested before TCO conjugation; also called unconjugated VHH8) VHH: QVQLQESGGGTVQPGGSLRLSCAASGISVSIASMAWYRQAPGKQRELVAGIISGGSTNYADSVKGRFTISRDNAKKVVLLQMNSLKPEDTAVYYCNTYPPFVGPGATATWGQGTQVTVSS | 1.01e+06
* VHH6 (VHH, Anti-FAP VHH, tested before TCO conjugation; also called unconjugated VHH6) VHH: DVQLVESGGGLVQAGGSLRLSCAVSGSISSANSMGWYRQAPGKQRDVVAGLTTGGRSHYADSVKGRFTISRDNAKNTVYLQMNSLKAEDTAVYYCNLWPPVQGYWGQGTQVTVSS | 3.41e+06
* VHH1 (VHH, Anti-FAP VHH, tested before TCO conjugation; also called VHH VHH1; unconjugated VHH1) VHH: DVQLVESGGGLVQPGGSLRLSCVASGRLSSSNSMAWYRQVPGKRRELVAGITGGGETNYADFVGGRFTISRDNAKNGLYLQLNGLKPEDTAAYYCNFWPPLINYWGQGTQVTVSS | 1.77e+06
